Data origin: the kinase profiling compilation of Christmann-Franck et al. (2016)

# test-system: CDC42BPA (human) (UniProt Q5VT25)
# Sequence (Q5VT25 whole entry, looked up): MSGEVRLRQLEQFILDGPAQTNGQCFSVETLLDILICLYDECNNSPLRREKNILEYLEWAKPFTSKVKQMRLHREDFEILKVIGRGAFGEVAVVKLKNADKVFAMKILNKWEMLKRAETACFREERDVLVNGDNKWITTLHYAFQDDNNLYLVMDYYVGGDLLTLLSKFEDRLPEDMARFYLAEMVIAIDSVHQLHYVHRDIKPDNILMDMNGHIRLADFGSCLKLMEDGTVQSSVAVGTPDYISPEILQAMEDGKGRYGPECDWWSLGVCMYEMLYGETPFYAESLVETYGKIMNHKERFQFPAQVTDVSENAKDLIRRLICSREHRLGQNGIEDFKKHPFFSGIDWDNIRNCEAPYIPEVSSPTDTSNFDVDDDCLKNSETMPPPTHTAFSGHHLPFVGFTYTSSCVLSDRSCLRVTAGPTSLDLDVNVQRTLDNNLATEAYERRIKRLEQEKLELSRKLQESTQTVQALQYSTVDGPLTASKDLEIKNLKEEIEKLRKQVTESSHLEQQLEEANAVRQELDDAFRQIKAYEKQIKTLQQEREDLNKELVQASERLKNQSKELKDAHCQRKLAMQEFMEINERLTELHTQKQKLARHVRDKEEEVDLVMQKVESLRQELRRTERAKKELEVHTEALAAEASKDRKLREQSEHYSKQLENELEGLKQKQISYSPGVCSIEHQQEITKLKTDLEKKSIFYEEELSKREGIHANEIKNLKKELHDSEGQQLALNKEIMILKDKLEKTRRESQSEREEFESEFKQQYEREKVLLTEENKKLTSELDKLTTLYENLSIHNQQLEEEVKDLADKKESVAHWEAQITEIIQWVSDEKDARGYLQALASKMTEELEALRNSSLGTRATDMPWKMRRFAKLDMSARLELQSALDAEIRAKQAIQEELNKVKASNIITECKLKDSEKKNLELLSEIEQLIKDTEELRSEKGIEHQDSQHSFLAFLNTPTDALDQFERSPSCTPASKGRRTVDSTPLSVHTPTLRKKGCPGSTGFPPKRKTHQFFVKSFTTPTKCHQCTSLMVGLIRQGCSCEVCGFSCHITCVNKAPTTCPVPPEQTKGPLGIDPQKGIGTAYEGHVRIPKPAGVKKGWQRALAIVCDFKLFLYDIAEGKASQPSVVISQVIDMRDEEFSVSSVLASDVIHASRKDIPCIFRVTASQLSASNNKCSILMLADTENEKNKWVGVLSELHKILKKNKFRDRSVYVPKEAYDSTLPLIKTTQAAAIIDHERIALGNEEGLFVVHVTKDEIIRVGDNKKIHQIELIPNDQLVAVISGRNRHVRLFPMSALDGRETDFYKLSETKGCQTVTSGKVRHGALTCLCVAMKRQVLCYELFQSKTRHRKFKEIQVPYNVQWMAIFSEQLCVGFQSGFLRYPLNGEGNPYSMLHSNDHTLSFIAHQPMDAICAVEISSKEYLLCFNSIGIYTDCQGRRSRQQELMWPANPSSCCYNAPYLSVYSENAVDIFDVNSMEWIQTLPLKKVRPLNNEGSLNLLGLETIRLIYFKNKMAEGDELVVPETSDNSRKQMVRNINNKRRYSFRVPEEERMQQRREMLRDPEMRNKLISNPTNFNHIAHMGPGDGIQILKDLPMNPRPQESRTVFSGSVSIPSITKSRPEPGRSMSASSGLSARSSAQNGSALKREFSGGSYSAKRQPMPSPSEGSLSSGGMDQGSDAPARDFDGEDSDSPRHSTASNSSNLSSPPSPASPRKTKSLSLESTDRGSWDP
# protocol-text: KINOMEscan competition binding
# settings: compound 10.0 µM
Exercise: for every item that follows, state its recorded kinase still bound, per cent of control.
Enter your answer as a number in %; do not include the unit.

Sample `CCN1CCN(C(=O)Cc2ccc(Nc3ncc(F)c(Nc4ccc(C(=O)Nc5ccccc5Cl)cc4)n3)cc2)CC1` — what was its kinase still bound, per cent of control? 100

Sample `C=CC(=O)Nc1ccc(CN(C(=O)Nc2c(Cl)c(OC)cc(OC)c2Cl)c2cc(Nc3ccc(N4CCN(C)CC4)cc3)ncn2)cc1` — what was its kinase still bound, per cent of control? 100

Sample `COc1ccc(N(C(=O)Oc2c(C)cccc2C)c2ccnc(Nc3ccc(N4CCN(C)CC4)cc3)n2)c(OC)c1` — what was its kinase still bound, per cent of control? 16

Sample `CN(C)C/C=C/C(=O)Nc1ccc(C(=O)Nc2cccc(Nc3nccc(-c4cccnc4)n3)c2)cc1` — what was its kinase still bound, per cent of control? 100

Sample `C[C@@H](Oc1cc(-c2cnn(C3CCNCC3)c2)cnc1N)c1c(Cl)ccc(F)c1Cl` — what was its kinase still bound, per cent of control? 43

Sample `CNC(=O)c1cc(Oc2ccc(NC(=O)Nc3ccc(Cl)c(C(F)(F)F)c3)cc2)ccn1` — what was its kinase still bound, per cent of control? 95

Sample `CS(=O)(=O)N1CCN(Cc2cc3nc(-c4cccc5[nH]ncc45)nc(N4CCOCC4)c3s2)CC1` — what was its kinase still bound, per cent of control? 100

Sample `CNC(=O)c1ccc(Nc2cc(Nc3ccccc3S(=O)(=O)C(C)C)c3cc[nH]c3n2)nc1` — what was its kinase still bound, per cent of control? 100

Sample `COc1cc2ncn(-c3cc(OCc4ccccc4C(F)(F)F)c(C(N)=O)s3)c2cc1OC` — what was its kinase still bound, per cent of control? 68

Sample `COc1cc2ncnc(-n3nc(-c4ccccn4)nc3N)c2cc1OC` — what was its kinase still bound, per cent of control? 99

Sample `CCN(CC)CCCCNc1ncc2c(n1)N(C)C(=O)N(c1c(Cl)c(OC)cc(OC)c1Cl)C2` — what was its kinase still bound, per cent of control? 100

Sample `CCN(CC)CCCCNc1ncc2cc(-c3cc(OC)cc(OC)c3)c(NC(=O)NC(C)(C)C)nc2n1` — what was its kinase still bound, per cent of control? 100

Sample `O=C1NC(=O)/C(=C/c2ccc3nccc(-c4ccncc4)c3c2)S1` — what was its kinase still bound, per cent of control? 90

Sample `COc1cc(N2CCN(C)CC2)ccc1Nc1ncc2c(n1)N(C)c1ccccc1C(=O)N2C` — what was its kinase still bound, per cent of control? 100

Sample `COc1cc(C(=O)N2CCC(N3CCN(C)CC3)CC2)ccc1Nc1ncc2c(n1)N(C)c1ccccc1C(=O)N2C` — what was its kinase still bound, per cent of control? 100

Sample `O=C(Nc1cccc(Nc2ncc(Br)c(NCCc3cnc[nH]3)n2)c1)N1CCCC1` — what was its kinase still bound, per cent of control? 95

Sample `COCC(=O)NC/C=C/c1ccc2ncnc(Nc3ccc(Oc4ccc(C)nc4)c(C)c3)c2c1` — what was its kinase still bound, per cent of control? 100

Sample `C=CC(=O)Nc1cc(-n2c(=O)ccc3cnc4ccc(-c5cn[nH]c5)cc4c32)ccc1C` — what was its kinase still bound, per cent of control? 97

Sample `Cc1n[nH]c2ccc(-c3cncc(OC[C@@H](N)Cc4c[nH]c5ccccc45)c3)cc12` — what was its kinase still bound, per cent of control? 6.6

Sample `NC(=O)Nc1cc(-c2cccc(F)c2)sc1C(=O)N[C@@H]1CCCNC1` — what was its kinase still bound, per cent of control? 62

Sample `O=c1cc(N2CCOCC2)oc2c(-c3cccc4c3sc3ccccc34)cccc12` — what was its kinase still bound, per cent of control? 94

Sample `N#CCNC(=O)c1ccc(-c2ccnc(Nc3ccc(N4CCOCC4)cc3)n2)cc1` — what was its kinase still bound, per cent of control? 67
